Target: UniProt:Q00987
Sequence (Q00987 1-125): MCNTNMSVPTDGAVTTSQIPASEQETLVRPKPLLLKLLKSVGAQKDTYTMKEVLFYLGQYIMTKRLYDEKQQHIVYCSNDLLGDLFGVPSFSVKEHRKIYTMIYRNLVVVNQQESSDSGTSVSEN
Assay: Competitive fluorescence polarization assay for MDM2
Type: binding
Settings: competitive FP assay, MDM2; read-out: Ki (MDM2)
Reported Ki values follow for various compounds

Example entries and their recorded answers appear below.
Compound | Ki
CC[C@H](C)[C@H](NC(=O)[C@H](C)NC(=O)[C@H](C)NC(=O)[C@]1(C)CCCC=CCCCCCC[C@@](C)(NC(=O)[C@H](Cc2ccccc2)NC(=O)[C@@H](NC(=O)[C@H](CC(C)C)NC(C)=O)[C@@H](C)O)C(=O)N[C@@H](C)C(=O)N[C@@H](Cc2ccc(O)cc2)C(=O)N[C@@H](Cc2c[nH]c3ccccc23)C(=O)N[C@@H](C)C(=O)N[C@@H](CCC(N)=O)C(=O)N[C@@H](CC(C)C)C(=O)N1)C(=O)N[C@H](C)C(N)=O (single isomer, unassigned) [compound 70] | < 10 nM
CC(=O)N[C@@H](CC(C)C)C(=O)N[C@H](C(=O)N[C@@H](Cc1ccccc1)C(=O)N[C@]1(C)CCCCCCC=CCCC[C@@](C)(C(=O)N[C@@H](CO)C(=O)N[C@H](C(=O)N[C@@H](CO)C(N)=O)C(C)C)NC(=O)[C@H](CC(C)C)NC(=O)[C@H](CCC(N)=O)NC(=O)[C@H](C)NC(=O)[C@H](Cc2c[nH]c3ccccc23)NC(=O)[C@H](Cc2ccc(O)cc2)NC(=O)[C@H](C(C)C)NC1=O)[C@@H](C)O (single isomer, unassigned) [compound 142] | < 10 nM

Query CC(=O)N[C@@H](CC(C)C)C(=O)N[C@H](C(=O)N[C@@H](Cc1ccccc1)C(=O)N[C@]1(C)CCCCCCC=CCCC[C@@](C)(C(=O)N[C@@H](C)C(=O)N[C@@H](C)C(=O)N[C@@H](CC(C)C)C(=O)N[C@H](C)C(N)=O)NC(=O)[C@H](CC(C)C)NC(=O)[C@H](CCC(N)=O)NC(=O)[C@H](C)NC(=O)[C@H](Cc2c[nH]c3ccccc23)NC(=O)[C@H](Cc2ccc(O)cc2)NC(=O)[C@H](C)NC1=O)[C@@H](C)O (single isomer, unassigned) [compound 215] yields Ki of < 10 nM

CC(=O)N[C@@H](CC(C)C)C(=O)N[C@H](C(=O)N[C@@H](Cc1ccccc1)C(=O)N[C@]1(C)CCCCCCC=CCCC[C@@](C)(C(=O)N[C@@H](CO)C(=O)N[C@@H](C)C(=O)N[C@@H](C)C(N)=O)NC(=O)[C@H](CC(C)C)NC(=O)[C@H](CCC(N)=O)NC(=O)[C@H](C)NC(=O)[C@H](Cc2c[nH]c3ccccc23)NC(=O)[C@H](CO)NC(=O)[C@H](C)NC1=O)[C@@H](C)O (single isomer, unassigned) [compound 167] has a reported Ki of < 10 nM

Briefly, Ki measured for CCCC[C@H](NC(=O)[C@H](C)NC(=O)[C@H](C)NC(=O)[C@]1(C)CCCC=CCCCCCC[C@@](C)(NC(=O)[C@H](Cc2ccccc2)NC(=O)[C@@H](NC(=O)[C@H](CC(C)C)NC(C)=O)[C@@H](C)O)C(=O)N[C@@H](C)C(=O)N[C@@H](Cc2ccc(O)cc2)C(=O)N[C@@H](Cc2c[nH]c3ccccc23)C(=O)N[C@@H](C)C(=O)N[C@@H](CCC(N)=O)C(=O)N[C@@H](CC(C)C)C(=O)N1)C(=O)N[C@@H](C)C(=O)NCCC(C)(C)C (single isomer, unassigned) [compound 425] : 10 to 100 nM
